Test system: c-Src
Test: phosphorylation enrichment, bacterial display (enrichment ratio); higher = better substrate or ligand; peptides without Tyr show the background
Endpoint: phosphorylation enrichment
No unit in the answer, only the number.

Return reported phosphorylation enrichment; argument: PSSNLYYRCLT [CNGA3_Y168_W171C]
1.05

Return reported phosphorylation enrichment; argument: PVQAAYQNVVA [HBB_Y131_K133N]
0.49

Return reported phosphorylation enrichment; argument: KLIETCFSKNY [PLP1_Y50_Y50C]
0.524

Return reported phosphorylation enrichment; argument: HEEKVYLSRGD [CRACR2A_Y141]
1.08

Return reported phosphorylation enrichment; argument: CRAVKYLQMVR [AVPR2_Y117_G122R]
0.401

Return reported phosphorylation enrichment; argument: HYVYYYSYLLK [PTEN_Y178_R173H]
3.08

Return reported phosphorylation enrichment; argument: LIFTNYEVGKD [GSTP1_Y112_A114V_YF]
0.825

Return reported phosphorylation enrichment; argument: YSNKLYYQLEQ [PDPR_Y109]
3.28

Return reported phosphorylation enrichment; argument: QNTGYYYDLYG [PTPN11_Y62_D61Y]
7.11

Return reported phosphorylation enrichment; argument: SRASYYRKGGC [ALK_Y1283_Y1278S]
0.52

Return reported phosphorylation enrichment; argument: RAMPVYKKAEH [TP63_Y231]
0.288

Return reported phosphorylation enrichment; argument: RQQQDYWLMDV [ANPEP_Y600_I603M]
0.509

Return reported phosphorylation enrichment; argument: SDGHEYIFVDP [PDGFRB_Y579_YF]
0.512

Return reported phosphorylation enrichment; argument: QQTYTYDSGIH [JUP_Y22]
1.41

###

Give measured phosphorylation enrichment for each item. Keep answers brief.
Tested on: Fer (mouse)
Test: phosphorylation enrichment, bacterial display (enrichment ratio); higher = better substrate or ligand; peptides without Tyr show the background

Return reported phosphorylation enrichment; argument: KANEYYPVVLI [ADAMTS18_Y765]
2.12

Return reported phosphorylation enrichment; argument: NVDGKYSFLKV [GRM3_Y478_G475D_YF]
0.48

Return reported phosphorylation enrichment; argument: DFTSRYLNASD [PKHD1_Y828]
0.45

Return reported phosphorylation enrichment; argument: CHSDDYVHISL [TSC1_Y406]
0.491

Return reported phosphorylation enrichment; argument: PIYEGYALPHA [ACTA1_Y171]
26.2

Return reported phosphorylation enrichment; argument: QDEHGYISRCF [HSPB1_Y133]
0.601

Return reported phosphorylation enrichment; argument: GISDEYHVIWH [GCDH_Y398_R402W]
0.649

Return reported phosphorylation enrichment; argument: KLQKYYRKNPD [EHHADH_Y683_Q685K]
0.283

Return reported phosphorylation enrichment; argument: EQSGSYIWVPA [DLG1_Y895]
0.514

Return reported phosphorylation enrichment; argument: ANARMYGVLPW [PLP1_Y207_D203N]
0.474

Return reported phosphorylation enrichment; argument: RGEKQYLATPL [ALOX12_Y295_A298T]
0.571

Return reported phosphorylation enrichment; argument: PLDGEHFTLQI [TP53_Y327_Y327H]
0.646

Return reported phosphorylation enrichment; argument: KQRKEYMHRWQ [IQGAP2_Y710_R714W]
0.617

Return reported phosphorylation enrichment; argument: GQKTLYSFFSP [UNG_Y8]
8.62

###

Give measured SH2 binding enrichment for each item. Keep answers brief.
System: SHP2-C SH2;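 note: peptide library displayed on the E. coli surface as eCPX fusions, selected cells deep-sequenced, score is each peptide's frequency after selection divided by its frequency in the input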
Test: SH2 binding enrichment of the phosphorylated peptide, bacterial display (enrichment ratio); higher = better substrate or ligand; peptides without Tyr show the background
No unit in the answer, only the number.

// fetch SHP2-C SH2 SH2 binding enrichment for MSPPGYKLVNG [GJA1_Y286_T290N]
0.609

// fetch SHP2-C SH2 SH2 binding enrichment for ACLSLYGGFVE [MVD_Y164_R161L]
0.661

// fetch SHP2-C SH2 SH2 binding enrichment for GSTLSYGRDGR [MATR3_Y158_P154S]
0.642

// fetch SHP2-C SH2 SH2 binding enrichment for SKQGKYLNWDA [ATM_Y54]
0.82

// fetch SHP2-C SH2 SH2 binding enrichment for ARRHPYFYAPE [ALB_Y172]
0.47

// fetch SHP2-C SH2 SH2 binding enrichment for KPLMPYMRFSR [SMARCE1_Y73_YF]
0.831

// fetch SHP2-C SH2 SH2 binding enrichment for DFRTTYVNANE [KCNH2_Y475_N470D]
2.23

// fetch SHP2-C SH2 SH2 binding enrichment for FCRHNYGVVES [HLA-DRB1_Y112_YF]
1.05

// fetch SHP2-C SH2 SH2 binding enrichment for IRRSSYEDSSL [HNF4A_Y144_T139I]
0.588

// fetch SHP2-C SH2 SH2 binding enrichment for SSEYHCVGGFY [CTSC_Y347_Y347C]
0.764

// fetch SHP2-C SH2 SH2 binding enrichment for NTPNTYLRVNV [ADD2_Y440]
1.29

// fetch SHP2-C SH2 SH2 binding enrichment for AKRKNYAPVTM [CFAP47_Y557_A561T]
1.16

// fetch SHP2-C SH2 SH2 binding enrichment for KRLDGYVLEGW [IGSF9_Y656_R661W]
0.819

// fetch SHP2-C SH2 SH2 binding enrichment for VMTVDYSKTVV [SETD2_Y770]
1.19

// fetch SHP2-C SH2 SH2 binding enrichment for ARKWGYTVKGI [OAT_Y158]
0.782

// fetch SHP2-C SH2 SH2 binding enrichment for RSHLPYDVTPE [IQGAP3_Y1098]
0.974

// fetch SHP2-C SH2 SH2 binding enrichment for CHSDDYVHISL [TSC1_Y406]
0.593

// fetch SHP2-C SH2 SH2 binding enrichment for RQAQAYRGQRV [TSHR_Y706]
0.665

// fetch SHP2-C SH2 SH2 binding enrichment for VECQVYAEDPF [PCCA_Y401_R399Q_YF]
0.501

// fetch SHP2-C SH2 SH2 binding enrichment for MAPQMYESHLP [NCAPD2_Y6_F8S]
0.495

// fetch SHP2-C SH2 SH2 binding enrichment for FAKSVYWDNTL [NUP107_Y296_E298D_YF]
0.694

// fetch SHP2-C SH2 SH2 binding enrichment for LIHLHYIRKDF [BBS4_Y43_YF]
2.75

// fetch SHP2-C SH2 SH2 binding enrichment for ADGLEYPRTGL [MMUT_Y287_S288P]
0.598

// fetch SHP2-C SH2 SH2 binding enrichment for FEGRSYSACTT [MMP9_Y241]
0.598

// fetch SHP2-C SH2 SH2 binding enrichment for NALAQYQEMEK [BBS4_Y395]
0.808

// fetch SHP2-C SH2 SH2 binding enrichment for CTTIHYNFRCN [TP53_Y234_M237R_YF]
1.67

// fetch SHP2-C SH2 SH2 binding enrichment for SEKISYVFMKR [SSX7_Y48_L43S_YF]
0.906

// fetch SHP2-C SH2 SH2 binding enrichment for PAEPRYRARQR [KCNJ11_Y26]
0.788

// fetch SHP2-C SH2 SH2 binding enrichment for TDLAFYLVREG [ASL_Y376_K380E_YF]
0.675

###

System: Fes (UniProt P07332)
Sequence (P07332 whole entry, looked up): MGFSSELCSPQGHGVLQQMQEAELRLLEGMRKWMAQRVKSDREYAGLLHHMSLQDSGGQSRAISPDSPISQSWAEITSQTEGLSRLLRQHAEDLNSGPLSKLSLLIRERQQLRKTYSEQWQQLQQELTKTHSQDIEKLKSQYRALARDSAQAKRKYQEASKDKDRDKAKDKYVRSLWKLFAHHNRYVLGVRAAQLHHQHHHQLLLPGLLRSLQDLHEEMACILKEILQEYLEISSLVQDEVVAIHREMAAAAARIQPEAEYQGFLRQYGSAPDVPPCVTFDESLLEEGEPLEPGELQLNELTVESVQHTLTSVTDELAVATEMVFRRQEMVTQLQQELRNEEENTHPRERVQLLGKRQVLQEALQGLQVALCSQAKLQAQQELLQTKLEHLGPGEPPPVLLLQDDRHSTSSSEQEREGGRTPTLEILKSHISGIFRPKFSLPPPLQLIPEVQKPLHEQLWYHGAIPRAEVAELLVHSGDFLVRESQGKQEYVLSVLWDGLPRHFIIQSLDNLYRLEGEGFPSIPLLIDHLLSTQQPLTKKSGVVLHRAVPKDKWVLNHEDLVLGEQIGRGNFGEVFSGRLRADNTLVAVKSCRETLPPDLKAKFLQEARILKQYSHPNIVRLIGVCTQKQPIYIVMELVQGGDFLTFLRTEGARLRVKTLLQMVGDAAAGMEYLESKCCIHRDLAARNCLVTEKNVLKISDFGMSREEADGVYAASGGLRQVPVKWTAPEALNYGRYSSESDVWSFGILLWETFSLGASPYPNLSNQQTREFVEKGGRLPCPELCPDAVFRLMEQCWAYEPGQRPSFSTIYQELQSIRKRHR
Test: phosphorylation enrichment, bacterial display (enrichment ratio); higher = better substrate or ligand; peptides without Tyr show the background
Label YES when phosphorylation enrichment is at or above 1; anything below gets NO.

API: above_or_equal(metric=phosphorylation enrichment, cutoff=1) for item ENAGYYFRVSA
YES

API: above_or_equal(metric=phosphorylation enrichment, cutoff=1) for item KKARAYRPGIE [FLNA_Y287_G288R]
NO

API: above_or_equal(metric=phosphorylation enrichment, cutoff=1) for item MVIPNYSSWTE [UROC1_Y185_R188W]
YES

API: above_or_equal(metric=phosphorylation enrichment, cutoff=1) for item VDSTEYEVASQ [SLC7A7_Y7]
YES

API: above_or_equal(metric=phosphorylation enrichment, cutoff=1) for item GVRTIYTIDGS [DCLK2_Y124]
NO

API: above_or_equal(metric=phosphorylation enrichment, cutoff=1) for item KLIETCFSKNY [PLP1_Y50_Y50C]
YES

API: above_or_equal(metric=phosphorylation enrichment, cutoff=1) for item YGAHKYHPLPV [OAT_Y55_N54K]
NO

API: above_or_equal(metric=phosphorylation enrichment, cutoff=1) for item NVDGKYSFLKV [GRM3_Y478_G475D_YF]
NO

API: above_or_equal(metric=phosphorylation enrichment, cutoff=1) for item IEDPYYGNDSD [ACP1_Y133]
YES

API: above_or_equal(metric=phosphorylation enrichment, cutoff=1) for item GNLQENLTRHV [TGFBR2_Y336_Y336N]
NO

API: above_or_equal(metric=phosphorylation enrichment, cutoff=1) for item FADTAYNFRHG [PAH_Y166_I164T_YF]
NO

API: above_or_equal(metric=phosphorylation enrichment, cutoff=1) for item PSSNLYYRCLT [CNGA3_Y168_W171C]
YES

API: above_or_equal(metric=phosphorylation enrichment, cutoff=1) for item NHQFDYTFHWT [CSNK1A1_Y294_D297H_YF]
YES

API: above_or_equal(metric=phosphorylation enrichment, cutoff=1) for item FEGRSYSACTT [MMP9_Y241]
YES

API: above_or_equal(metric=phosphorylation enrichment, cutoff=1) for item NALAQYQEMEK [BBS4_Y395]
NO

API: above_or_equal(metric=phosphorylation enrichment, cutoff=1) for item KYVVVYFREID [IL17RB_Y447]
YES

API: above_or_equal(metric=phosphorylation enrichment, cutoff=1) for item KSAAIYNPVIF [RHO_Y301_YF]
NO

API: above_or_equal(metric=phosphorylation enrichment, cutoff=1) for item EPSLVYMVTKI [CPS1_Y768_D767V]
YES

API: above_or_equal(metric=phosphorylation enrichment, cutoff=1) for item NTDETYCIDNK [TUBB3_Y200_E205K]
YES

API: above_or_equal(metric=phosphorylation enrichment, cutoff=1) for item GEDEPYAEPFA [APBA1_Y183_S184A_YF]
YES

API: above_or_equal(metric=phosphorylation enrichment, cutoff=1) for item SHNKFYMLVAR [MFSD8_Y134_YF]
YES

API: above_or_equal(metric=phosphorylation enrichment, cutoff=1) for item QFFQGYFNNNF [ZNF236_Y644_S643G]
YES

API: above_or_equal(metric=phosphorylation enrichment, cutoff=1) for item TNGFTCGSSHQ [MANEA_Y331_Y331C]
NO

API: above_or_equal(metric=phosphorylation enrichment, cutoff=1) for item DRTVHYVDEKG [IFT140_Y216_G212R]
NO

API: above_or_equal(metric=phosphorylation enrichment, cutoff=1) for item DVFLKHLNFAT [PDE6B_Y212_Y212H]
NO

API: above_or_equal(metric=phosphorylation enrichment, cutoff=1) for item MAPQMYESHLP [NCAPD2_Y6_F8S]
NO

API: above_or_equal(metric=phosphorylation enrichment, cutoff=1) for item SKEPYYVRCIK [MYO1D_Y586]
NO

API: above_or_equal(metric=phosphorylation enrichment, cutoff=1) for item GHLFAYNWISI [BEST1_Y227_D228N_YF]
YES

These measurements were taken from the supplement of paper PMC10065799.
